# System: LCLC-97TM1
# measurement-protocol: relative viability (nuclei count vs DMSO), 5 days (fraction); higher = more cells survive
# experimental-context: first compound 2.53 µM
Form field: relative viability (one value per entry).

Cc1cnc(-c2cnc(NCCNc3ccc(C#N)cn3)nc2-c2ccc(Cl)cc2Cl)[nH]1 + Nc1ncn([C@H]2C[C@H](O)[C@@H](CO)O2)c(=O)n1 [Decitabine] (partner 2 µM) | 0.227
Cc1cnc(-c2cnc(NCCNc3ccc(C#N)cn3)nc2-c2ccc(Cl)cc2Cl)[nH]1 + C[C@@H](Oc1cc(-c2cnn(C3CCNCC3)c2)cnc1N)c1c(Cl)ccc(F)c1Cl [Crizotinib] (partner 1 µM) | 0.349
Cc1cnc(-c2cnc(NCCNc3ccc(C#N)cn3)nc2-c2ccc(Cl)cc2Cl)[nH]1 + Cc1nc(NC(=O)N2CCC[C@H]2C(N)=O)sc1-c1ccnc(C(C)(C)C(F)(F)F)c1 [Alpelisib] (partner 2 µM) | 0.323
O=c1[nH]c2ccccc2n1C1CCN(CCCC(c2ccc(F)cc2)c2ccc(F)cc2)CC1 [Pimozide] + C[C@@H](Oc1cc(-c2cnn(C3CCNCC3)c2)cnc1N)c1c(Cl)ccc(F)c1Cl [Crizotinib] (partner 1 µM) | 0.424
Cc1cnc(-c2cnc(NCCNc3ccc(C#N)cn3)nc2-c2ccc(Cl)cc2Cl)[nH]1 + O=C(CCCCCCC(=O)Nc1ccccc1)NO [Vorinostat] (partner 1 µM) | 0.515
O=c1[nH]c2ccccc2n1C1CCN(CCCC(c2ccc(F)cc2)c2ccc(F)cc2)CC1 [Pimozide] + COc1cccc2cc(-c3nc([C@H]4CC[C@H](C(=O)O)CC4)n4ncnc(N)c34)[nH]c12 [OSI-027] (partner 0.5 µM) | 0.422
O=c1[nH]c2ccccc2n1C1CCN(CCCC(c2ccc(F)cc2)c2ccc(F)cc2)CC1 [Pimozide] + Nc1ncn([C@H]2C[C@H](O)[C@@H](CO)O2)c(=O)n1 [Decitabine] (partner 2 µM) | 0.221
Cc1cnc(-c2cnc(NCCNc3ccc(C#N)cn3)nc2-c2ccc(Cl)cc2Cl)[nH]1 + Cc1cc(Nc2cc(N3CCN(C)CC3)nc(Sc3ccc(NC(=O)C4CC4)cc3)n2)n[nH]1 [Tozasertib] (partner 0.1 µM) | 0.223

# input for lookup
relative viability measured on O=c1[nH]c2ccccc2n1C1CCN(CCCC(c2ccc(F)cc2)c2ccc(F)cc2)CC1 [Pimozide] + CC(=O)Nc1cccc(-n2c(=O)n(C3CC3)c(=O)c3c(Nc4ccc(I)cc4F)n(C)c(=O)c(C)c32)c1 [Trametinib] (partner 0.02 µM) = 0.185

====

# System: NCI-H2405
# measurement-protocol: relative viability (nuclei count vs DMSO), 5 days (fraction); higher = more cells survive
# experimental-context: first compound 0.01581 µM
Form field: relative viability (one value per entry).
Reply briefly: the number, and no unit.

relative viability measured on COc1cc2nccc(Oc3ccc(NC(=O)Nc4cc(C)on4)c(Cl)c3)c2cc1OC [Tivozanib] + CC(=O)Nc1cccc(-n2c(=O)n(C3CC3)c(=O)c3c(Nc4ccc(I)cc4F)n(C)c(=O)c(C)c32)c1 [Trametinib] (partner 0.02 µM) = 0.664

relative viability measured on COc1cc2nccc(Oc3ccc(NC(=O)Nc4cc(C)on4)c(Cl)c3)c2cc1OC [Tivozanib] + CC(=O)c1c(C)c2cnc(Nc3ccc(N4CCNCC4)cn3)nc2n(C2CCCC2)c1=O [Palbociclib] (partner 0.5 µM) = 0.55
